Source listed as patent US20240398752A1.

Assay: in vivo
Details: rat, in vivo, iv, 10 mg/kg, CL, tofacitinib 10 mg/kg intravenous; CON rats
Procedure: Blood collection was performed at 0, 1, 5, 15, 30, 45, 60, 90, 120, 180, 240, 360, 480, 600, and 720 minutes for intravenous administration of tofacitinib, and at 0, 5, 15, 30, 45, 60, 90, 120, 180, 240, 360, 480, 600, and 720 minutes for oral administration to quantify concentrations of tofacitinib in the plasma. Then, urine was collected for 24 hours to analyze the concentration of tofacitinib excreted in urine as well.
measured_quantity: clearance (mL/min/kg)

[[record]]
smiles_entry = "C[C@@H]1CCN(C(=O)CC#N)C[C@@H]1N(C)c1ncnc2[nH]ccc12"
unit_abbreviation = "mL/min/kg"
reported = 24.1

